target.or.system: Cholinesterase (Homo sapiens)
Sequence (P06276 whole entry): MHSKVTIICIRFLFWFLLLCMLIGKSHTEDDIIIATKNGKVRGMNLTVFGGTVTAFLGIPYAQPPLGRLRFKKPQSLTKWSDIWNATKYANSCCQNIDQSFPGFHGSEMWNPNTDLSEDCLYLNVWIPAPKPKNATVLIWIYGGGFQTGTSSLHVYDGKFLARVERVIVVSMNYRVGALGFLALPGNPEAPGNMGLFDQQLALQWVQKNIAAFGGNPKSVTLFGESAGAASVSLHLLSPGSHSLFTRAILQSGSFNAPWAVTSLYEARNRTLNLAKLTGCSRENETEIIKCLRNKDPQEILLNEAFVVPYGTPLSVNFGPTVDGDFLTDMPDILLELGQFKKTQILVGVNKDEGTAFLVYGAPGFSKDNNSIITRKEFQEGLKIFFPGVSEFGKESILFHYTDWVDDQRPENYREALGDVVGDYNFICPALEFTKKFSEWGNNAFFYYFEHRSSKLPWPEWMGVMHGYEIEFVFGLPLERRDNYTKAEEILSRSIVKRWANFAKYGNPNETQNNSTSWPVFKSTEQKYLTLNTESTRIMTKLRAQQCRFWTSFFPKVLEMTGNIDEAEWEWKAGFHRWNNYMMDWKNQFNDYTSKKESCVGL
protocol.notes: Inhibition of human serum BChE using butyrylthiocholine iodide as substrate preincubated for 10 mins followed by substrate addition by Ellman's method
property.name: pIC50
Remember the convention: pIC50 equals -log10 of concentration in molar.

Query block: State its pIC50: O=C(N/N=C/c1ccc(Br)cc1)N1CCN(c2ccccn2)CC1
Result block: 5.73

Query block: Answer with reported pIC50 of Oc1ccccc1-c1nnc(N2CCN(c3ccccn3)CC2)o1
Result block: 5.09

Query block: Name the recorded pIC50 of the compound listed here: Oc1ccc(-c2nnc(N3CCN(c4ccccn4)CC3)o2)c(O)c1
Result block: 5.48

Query block: Identify measured pIC50 corresponding to Fc1ccc(-c2nnc(N3CCN(c4ccccn4)CC3)o2)cc1
Result block: 5.91

Query block: In one line, give reported pIC50 of the entry COc1cc(-c2nnc(N3CCN(c4ccccn4)CC3)o2)cc(OC)c1OC .
Result block: 5.44

Query block: State its pIC50: Oc1ccc(-c2nnc(N3CCN(c4ccccn4)CC3)o2)cc1
Result block: 5.22

Query block: Could you please provide reported pIC50 for O=C(N/N=C/c1ccc(F)cc1F)N1CCN(c2ccccn2)CC1 ? Thanks!
Result block: 5.40

Query block: Provide pIC50 value for the following compound: O=C(N/N=C/c1ccccc1)N1CCN(c2ccccn2)CC1
Result block: 5.37

Query block: Identify measured pIC50 associated with O=C(N/N=C/c1ccc(F)cc1)N1CCN(c2ccccn2)CC1
Result block: 5.40

Query block: Find the measured pIC50 of O=[N+]([O-])c1ccc(-c2nnc(N3CCN(c4ccccn4)CC3)o2)cc1 and report it.
Result block: 5.54

Query block: Fill in pIC50 for record O=C(N/N=C/c1ccc(Cl)cc1)N1CCN(c2ccccn2)CC1
Result block: 5.32

Query block: Return the recorded pIC50 value; entry: Clc1ccc(-c2nnc(N3CCN(c4ccccn4)CC3)o2)cc1
Result block: 5.74
